Target: Acrosin (Homo sapiens)
Sequence (P10323 20-42 limits assumed): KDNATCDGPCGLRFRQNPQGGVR
Sequence (P10323 43-343 limits assumed): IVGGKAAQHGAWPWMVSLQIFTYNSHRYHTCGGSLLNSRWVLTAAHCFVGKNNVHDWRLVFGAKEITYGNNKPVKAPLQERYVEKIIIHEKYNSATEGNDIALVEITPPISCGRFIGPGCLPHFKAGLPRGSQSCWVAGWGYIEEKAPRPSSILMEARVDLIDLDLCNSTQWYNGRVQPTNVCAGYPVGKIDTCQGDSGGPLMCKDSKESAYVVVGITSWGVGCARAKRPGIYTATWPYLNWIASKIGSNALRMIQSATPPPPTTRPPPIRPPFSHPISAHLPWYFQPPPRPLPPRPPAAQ
Experiment: Inhibition of human sperm acrosin using BAPNA as substrate after 3 hrs by spectrophotometric analysis
# note: exactly 800 µM is not below, so it is label 0; use label 1 for IC50 strictly under it

// known answers, use as guide
- molecule: "O=C(NCCO)c1cc(-c2ccccc2)[nH]n1"
  assayed system: "Acrosin (Homo sapiens)"
  cat: "label 0"
- molecule: "O=C(NCCO)c1cc(-c2ccc(Br)cc2)[nH]n1"
  assayed system: "Acrosin (Homo sapiens)"
  cat: "label 1"
- molecule: "CC(O)CNC(=O)c1cc(-c2ccc([N+](=O)[O-])cc2)[nH]n1 (stereo unspecified)"
  assayed system: "Acrosin (Homo sapiens)"
  cat: "label 0"

Incoming: Does the reported IC50 of the following molecule sit strictly below 800 µM? O=C(c1cc(-c2cccc([N+](=O)[O-])c2)[nH]n1)N(CCO)CCO
Outgoing: label 0

Incoming: Does the reported IC50 of the following molecule sit strictly below 800 µM? O=C(NC(CO)(CO)CO)c1cc(-c2ccccc2)[nH]n1
Outgoing: label 0

Incoming: Does the reported IC50 of the following molecule sit strictly below 800 µM? O=C(NC(CO)(CO)CO)c1cc(-c2cccc([N+](=O)[O-])c2)[nH]n1
Outgoing: label 1

Incoming: Does the reported IC50 of the following molecule sit strictly below 800 µM? O=C(NCCCO)c1cc(-c2ccc([N+](=O)[O-])cc2)[nH]n1
Outgoing: label 0

Incoming: Does the reported IC50 of the following molecule sit strictly below 800 µM? O=C(NCCOCCO)c1cc(-c2cccc([N+](=O)[O-])c2)[nH]n1
Outgoing: label 0

Incoming: Does the reported IC50 of the following molecule sit strictly below 800 µM? O=C(c1cc(-c2ccc([N+](=O)[O-])cc2)[nH]n1)N(CCO)CCO
Outgoing: label 0

Incoming: Does the reported IC50 of the following molecule sit strictly below 800 µM? CC(C)(CO)NC(=O)c1cc(-c2ccc([N+](=O)[O-])cc2)[nH]n1
Outgoing: label 0

Incoming: Does the reported IC50 of the following molecule sit strictly below 800 µM? O=Cc1cc(-c2ccc(Cl)cc2Cl)on1
Outgoing: label 1
